Experimental Parameters: in isopropyl acetate, 283.15 K
Readout Label: solubility (mole fraction)
Answers are plain numbers.

Q: For the compound O=C1OC(=O)[C@H]2[C@@H]1[C@@H]1C=C[C@H]2C1 , give its reported solubility (mole fraction).
Ans: 0.0258

---

Experimental Parameters: in methanol, 303.15 K
Readout Label: solubility (mole fraction)
Answers are plain numbers.

Q: For the molecule O=C1OC(=O)[C@H]2[C@@H]1[C@@H]1C=C[C@H]2C1 , give its reported solubility (mole fraction).
Ans: 0.0126

---

Experimental Parameters: in n-pentyl acetate, 303.15 K
Readout Label: solubility (mole fraction)
One number for each entry.

Q: For the compound O=C1OC(=O)[C@H]2[C@@H]1[C@@H]1C=C[C@H]2C1 , give its reported solubility (mole fraction).
Ans: 0.0455
